- experimental_target: T1, SCREAM (SCRM), recombinant full-length protein (1-494) (A. thaliana, UniProt Q9LSE2 1-494)
- T1 construct: SCRM (ICE1), A. thaliana, residues 1-494; called full-length in the results; The methods describe thrombin removal of GST for all recombinant proteins; For the BLI runs of SCRM with MUTE one partner must have kept GST (anti-GST probes); also called ICE1; source: E. coli BL21, purified (glutathione resin, thrombin digestion, Superdex-200); not shown: GST, N-terminal, cleaved
- T1 sequence (looked up): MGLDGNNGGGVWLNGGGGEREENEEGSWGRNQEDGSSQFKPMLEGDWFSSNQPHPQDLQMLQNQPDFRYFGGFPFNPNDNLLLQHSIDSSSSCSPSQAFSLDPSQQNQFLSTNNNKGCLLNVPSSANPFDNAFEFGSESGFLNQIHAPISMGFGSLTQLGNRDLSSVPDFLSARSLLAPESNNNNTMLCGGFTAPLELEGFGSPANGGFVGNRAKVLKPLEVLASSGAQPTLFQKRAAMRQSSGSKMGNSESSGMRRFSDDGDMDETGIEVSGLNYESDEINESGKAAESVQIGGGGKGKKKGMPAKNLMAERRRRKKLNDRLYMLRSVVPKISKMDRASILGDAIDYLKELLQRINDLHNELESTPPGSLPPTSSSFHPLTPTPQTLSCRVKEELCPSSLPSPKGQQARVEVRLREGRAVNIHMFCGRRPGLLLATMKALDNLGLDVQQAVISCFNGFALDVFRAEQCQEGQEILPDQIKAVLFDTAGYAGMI
- method_description: BLI; SCRM with MUTE or MUTE mutants, no compound; Octet Red96, anti-GST probes loaded with 500 nM GST-tagged protein; 30 °C; 1x PBS, 2% DMSO, 0.02% Tween20; 1:1 model; KD (SS) from steady-state analysis
- measurement_conditions: both partners purified
observation_type: koff (s⁻¹)
Use s⁻¹ as the unit, but write only the number.

Past entries and their recorded results:
{"binder": "MUTE_E162A_E163A, recombinant (natural protein, A. thaliana, UniProt Q9M8K6 1-202, looked up, MUTE, A. thaliana, with E162A and E163A; source: E. coli BL21, purified (glutathione resin)) MSHIAVERNRRRQMNEHLKSLRSLTPCFYIKRGDQASIIGGVIEFIKELQQLVQVLESKKRRKTLNRPSFPYDHQTIEPSSLGAATTRVPFSRIENVMTTSTFKEVGACCNSPHANVEAKISGSNVVLRVVSRRIVGQLVKIISVLEKLSFQVLHLNISSMAATVLYFFVVKIGLECHLSLEELTLEVQKSFVSDEVIVSTN", "quantity_unit": "s⁻¹", "koff": 0.000334}
{"binder": "MUTE, recombinant full-length protein (1-202), as used in BLI with SCRM (natural protein, A. thaliana, UniProt Q9M8K6 1-202, looked up, BLI probes were anti-GST and loaded with 500 nM GST-tagged protein; source: E. coli BL21, purified (glutathione resin)) MSHIAVERNRRRQMNEHLKSLRSLTPCFYIKRGDQASIIGGVIEFIKELQQLVQVLESKKRRKTLNRPSFPYDHQTIEPSSLGAATTRVPFSRIENVMTTSTFKEVGACCNSPHANVEAKISGSNVVLRVVSRRIVGQLVKIISVLEKLSFQVLHLNISSMEETVLYFFVVKIGLECHLSLEELTLEVQKSFVSDEVIVSTN", "quantity_unit": "s⁻¹", "koff": 0.000147}

The record that follows has no koff shown yet.
Prompt line: Identify the reported koff for the following entry. MUTE_R133A_R134A, recombinant (natural protein, A. thaliana, UniProt Q9M8K6 1-202, looked up, MUTE, A. thaliana, with R133A and R134A; source: E. coli BL21, purified (glutathione resin)) MSHIAVERNRRRQMNEHLKSLRSLTPCFYIKRGDQASIIGGVIEFIKELQQLVQVLESKKRRKTLNRPSFPYDHQTIEPSSLGAATTRVPFSRIENVMTTSTFKEVGACCNSPHANVEAKISGSNVVLRVVSAAIVGQLVKIISVLEKLSFQVLHLNISSMEETVLYFFVVKIGLECHLSLEELTLEVQKSFVSDEVIVSTN
Response line: 0.000256

Where do these numbers come from? They come from paper PMC11500415.
